- testedTarget: hTSLP-His (human, UniProt Q969D9 29-159, limits assumed)
- measurementProtocol: cell-based or functional assay
measurementLabel: IC50 [pM], STAT5 phosphorylation inhibition in MUTZ5 cells (pM)
Numbers only, in pM.

Sample records with IC50 [pM], STAT5 phosphorylation inhibition in MUTZ5 cells:
binder	measurementUnit	reportedValue
BDG38.117 (antibody, V domains shown, IgG1) VH: QMQLVESGGGVVQPGRSLTLSCAASGFEFRTYGMHWVRQAPGKGLEWVGVIWDDGSNTHYADSVKGRFTITRDNSKNTLNLQMNSLRAEDTAVYYCARAPQWYLTAEAFDLWGQGTMVTVSS VL: SYVLTQPPSVSVAPGETATITCGGNLIGAKLVHWYQQKPGQAPVLVIYDDSDRPSRIPERFSGSNIGNTATLTIEDVEAGDEADYYCQVWDYSSDTMVFGGGTKLTVL	pM	0.363
BDG38.134 (antibody, V domains shown, IgG1) VH: QMQLVESGGGVVQPGQSLRLSCAASGFEFRTYGMHWVRQAPGKGLEWLAVIWYDGSNTHYADSVKGRFTITRDNSKNTLNLQMNSLRAEDTAVYYCVRAPQWYNSAEAFDLWGQGTMVTVSS VL: SYVLTQPPSVSVAPGQTARITCGGNLIGARLVHWYQQKPGQAPVLVIYDDSDRPSHIPERFSGSNSGNTATLTISRVEAGDEADYYCQVWDYSADTMVFGGGTKLTVL	pM	32

Let us examine a further case.
# IC50 [pM], STAT5 phosphorylation inhibition in MUTZ5 cells lookup, item BDG38.137 (antibody, V domains shown, IgG1) VH: QMQLVESGGGVVQPGQSLRLSCAASGFEFRTYGMHWVRQAPGKGLEWVAVIWDDGSNTHYADSVKGRFTITRDNSKNTLNLQMNSLRAEDTAVYYCVRAPQWYLTAEAFDLWGQGTMVTVSS VL: SYVLTQPPSVSVAPGETATITCGGNLIGARLVHWYQQKPGQAPVLVIYDDSDRPSHIPERFSGSNSGNTATLTISRVEAGDEADYYCQVWDYSADTMVFGGGTKLTVL
1.85
